The values you see were collected from a melting point compilation (Tetko et al.; mined from patent text by program, amines drawn as free bases though some values may be those of a salt).

Recorded melting point for the following molecules
reportedProperty: melting point

COc1ccc(C(=O)N2c3ccccc3C(n3c4ccccc4c4ccccc43)CC2CCCCCN(C)C)cc1OC (stereo not drawn); 198 to 200 °C
C[C@H]1CN(c2c(F)c(F)c3c(=O)c(C(=O)O)cn(C4CC4)c3c2F)C[C@H]1N (relative stereo); 255 to 256 °C
Cc1cccc(NC(=O)NC2N=C(c3ccccc3F)c3ccccc3N(Cc3cccnc3)C2=O)c1 (racemic); 242 to 243 °C
O=C(NC(=O)c1c(F)cccc1F)Nc1cc(Cl)cc(C(F)(F)F)c1Cl; 205 to 208 °C
COc1ccccc1N1CCN(CC(O)COc2ccccc2C(=O)O)CC1 (stereo not drawn); 198 to 202 °C
CC(C)(C)c1cc(C(O)C#Cc2ccc(C(=O)O)c(O)c2)cc(C(C)(C)C)c1OCOCC[Si](C)(C)C (stereo not drawn); 146 to 147 °C
COc1ccc2c(CCN3CCCCC3=O)c[nH]c2c1; 146 °C
O=C(O)C(CSc1nccs1)CS(=O)(=O)c1ccc(-c2ccc(Cl)cc2)cc1 (stereo not drawn); 152 to 154 °C

----------
reportedProperty: melting point

CN(C)CCNc1ccc(NCCN(C)C)c2c1C(=O)c1ccc(O)c(O)c1C2=O; 133 to 135 °C
COc1ccc(-c2ocnc2-c2cc(OC)c(Br)c(OC)c2)cc1N; 180 to 184 °C
O=C1CCN(C(=O)OCc2ccc([N+](=O)[O-])cc2)CC1; 123 to 124 °C
Cn1cc(-c2cccc(Cl)c2)c(=O)o1; 131 °C
COC(=O)C(C(=O)OC)C(Cc1cc(C(F)(F)F)ccc1[N+](=O)[O-])c1ccc(OC)cc1 (stereo not given); 110 to 112 °C

----------
melting point values, listed per item
reportedProperty: melting point

COCc1c(C(=O)O)ncc2[nH]c3c(c12)CCCC3; > 260 °C
CC(C)(N)CNC(=O)Nc1ccccc1; 130 to 131 °C
COc1ccc(NCc2cc(OC)c(OC)c(OC)c2)cc1; 73 to 74 °C
COC(=O)CC1COc2ccc(N)cc2C1 (configuration not stated); 104 to 106 °C
Nc1cccc2c1C(=O)N(c1ccc(OC(F)(F)F)cc1)C2=O; 161 to 162 °C
COc1cccc(OCCCN2CCC(C(O)(c3ccc(F)cc3)c3ccc(F)cc3)CC2)c1; 107 to 108 °C
N#CC(C=N)CC(=O)c1ccc2ccccc2c1 (configuration not stated); 154 to 157 °C
CC(NC(=O)CCBr)c1ccccc1 (configuration not stated); 69 to 70 °C
OCc1ncc(O)c2c1[nH]c1ccccc12; 148 °C
O=C(c1ccco1)N1CCN(c2cc(-c3ccc(F)cc3)c3c(n2)CCC3)CC1; 165 to 166 °C
COc1cc2c(c3c1OC(C)(C)C3)C(c1ccncc1Cl)=NC(C)(C)C2; 126 to 128 °C
CC(C)(C)c1nc(CN2C(=O)C3(COc4cc5c(cc43)OCO5)c3ccccc32)no1 (configuration not stated); 183 to 185 °C
CCOC(=O)c1cc(OCc2ccccc2)c2c(Cl)cc(Cl)cc2n1; 146 to 147 °C
COc1cc(CBr)ccc1OC(=O)c1ccccc1; 86 to 88 °C
CCn1c(=O)sc2cc(C(O)c3ccc([N+](=O)[O-])cc3)ccc21 (configuration not stated); 160 to 162 °C
COc1ccc(-c2nc(CN3CCOCC3)nc3cc(OC)c(OC)cc23)cc1OC; 148 to 150 °C
ClC(=NNc1c(Cl)cc(Cl)cc1Cl)c1ccccc1; 93 to 94.5 °C
CC(CN=C(c1ccccc1)c1ccccc1)N=C(c1ccccc1)c1ccccc1 (configuration not stated); 89 to 90 °C
CCC(=O)Nc1ccc2ncnc(Nc3cccc(Br)c3)c2c1; 265 to 266 °C
COC(=O)c1c(N)ncn1C1c2ccccc2CC2CCCCC21 (configuration not stated); 155 to 159 °C
CC(C)(C)OC(=O)NS(=O)(=O)c1ccc(Br)cc1; 127 to 128 °C
CCCCCCNC(=O)[C@@H]1CCCN1C(=O)[C@@H](N)C(C)C; 105 to 106 °C
O=C(Nc1cc(-c2ccnc3c(C(=O)c4cccs4)cnn23)ccc1F)c1ccncc1; 175 to 179 °C
CC(=O)c1ccc(Cl)c(S(N)(=O)=O)c1; 175 to 176 °C
c1ccc(-c2cn3ccsc3n2)cc1; 143 to 144 °C
COCC1Cc2c(Cl)c(C)cc([N+](=O)[O-])c2O1 (configuration not stated); 117 to 119 °C
CC(C)(Cn1cnc2c(N)nc3ccccc3c21)CC1(C)OCCO1; 153 to 155 °C
Cc1nc(N2CCN(Cc3ccc(OC(F)(F)F)cc3)C2=O)sc1C(=O)NCC1CC1; 184 to 186 °C
CCCCC(=O)Nc1ccn(C2OC(CO)C(O)C2O)c(=O)n1 (configuration not stated); 132 to 135 °C
CCc1nn(-c2ccc(F)cc2)c2c1C(C)N(C)C2=O (configuration not stated); 65 °C
O=C(Nc1ccc(Cl)cc1)NC1N=C(c2ccccc2)c2ccccc2-n2cnnc21 (configuration not stated); 294 to 296 °C
CN(CC(=O)O)C(=O)C=Cc1ccccc1; 177 to 179 °C
NC(=O)CON=C(C(=O)O)c1ccco1; 143 to 145 °C
CC(=O)OC1CC(C)(C)N(OC(=NC2CCCCC2)N(C(C)=O)C2CCCCC2)C(C)(C)C1; 125 to 130 °C
O=c1c2cncc3cccc(c32)n2c([N+](=O)[O-])ccc12; 192 °C
CNC(=O)c1ccc(C2C(C(=O)c3ccc(C)cc3)=C(O)C(=O)N2c2ncc(S(=O)(=O)c3ccc([N+](=O)[O-])cc3)s2)cc1 (configuration not stated); 195 to 197 °C
Cc1cc(C)n(-c2nc(Nc3ccc(I)cc3)c3ccccc3n2)n1; 226 to 229 °C
COc1ccc2nc(Nc3cc(C)cs3)[nH]c2c1; 143 to 146 °C
COc1ccc(C(=O)c2c(F)cccc2F)c(O)c1; 71 to 72 °C
CCOC(=O)c1cccc(OCc2ccc3ccccc3c2)c1; 45 to 46.5 °C
Cc1cc2c(cc1Cl)C(NCCC1CCN(C(=O)OC(C)(C)C)CC1)(c1ccccc1Cl)C(=O)N2 (configuration not stated); 245 to 248 °C
CCN(C(C)=O)c1cccc(-c2ccnc3c(Cl)cnn23)c1; 157 to 159 °C
